Values were extracted from patent US20090215710A1.

Measurement Description: Cell viability in pre-screen (Table 1)
Format: cell-based
Measurement Context: 100 uM
Readout Name: % Viability (%)
Answers are plain numbers, in %.

INSERT INTO assay_data (molecule, unit_abbreviation, value_reported) VALUES
  ('COc1ccc(O[C@H]2O[C@@H]3COC(c4ccccc4)O[C@H]3[C@H](O[C@@H]3O[C@H](COC(=O)CCC(C)=O)[C@@H](O)[C@H](OC(C)=O)[C@H]3OC(C)=O)[C@H]2NC(=O)C(Cl)(Cl)Cl)cc1 (some centres unmarked)', '%', 119),
  ('COc1ccc(O[C@H]2O[C@@H]3COC(c4ccccc4)O[C@H]3[C@H](O[C@@H]3O[C@H](COC(=O)CCC(C)=O)[C@@H](OS(=O)(=O)O)[C@H](OC(C)=O)[C@H]3OC(C)=O)[C@H]2NC(=O)C(Cl)(Cl)Cl)cc1 (some centres unmarked)', '%', 96),
  ('COc1ccc(O[C@@H]2O[C@@H]3COC(c4ccccc4)O[C@H]3[C@H](O)[C@H]2O)cc1 (some centres unmarked)', '%', 107);

Parameter requested: % Viability. Apply to each item below.
1. COc1ccc(O[C@@H]2O[C@H](COC(C)=O)[C@@H](OC(C)=O)[C@H](OC(C)=O)[C@H]2OC(C)=O)cc1
2. COc1ccc(O[C@@H]2O[C@H](COC(=O)CCC(C)=O)[C@@H](OC(=O)CCl)[C@H](OC(C)=O)[C@H]2OC(C)=O)cc1
3. COc1ccc(O[C@H]2O[C@@H]3COC(c4ccccc4)O[C@H]3[C@H](O[C@@H]3O[C@H](CO)[C@@H](OC(=O)CCl)[C@H](OC(C)=O)[C@H]3OC(C)=O)[C@H]2NC(=O)C(Cl)(Cl)Cl)cc1 (some centres unmarked)
4. COc1ccc(O[C@H]2O[C@@H]3COC(c4ccccc4)O[C@H]3[C@H](O[C@@H]3O[C@H](CO)[C@@H](OC(C)=O)[C@H](OC(C)=O)[C@H]3OC(C)=O)[C@H]2NC(=O)C(Cl)(Cl)Cl)cc1 (some centres unmarked)
5. COc1ccc(O[C@H]2O[C@@H]3COC(c4ccccc4)O[C@H]3[C@H](O[C@@H]3O[C@H](COC(=O)CCl)[C@@H](OC(C)=O)[C@H](OC(C)=O)[C@H]3OC(C)=O)[C@H]2NC(=O)C(Cl)(Cl)Cl)cc1 (some centres unmarked)
6. CC(=O)CCC(=O)OC[C@H]1O[C@@H](O[C@H]2[C@@H]3OC(c4ccccc4)OC[C@H]3OC(O)[C@@H]2NC(=O)C(Cl)(Cl)Cl)[C@H](OC(C)=O)[C@@H](OC(C)=O)[C@@H]1OC(=O)CCl (some centres unmarked)

[reply]
1. 116
2. 86
3. 11
4. 89
5. 81
6. 13
